These measurements were taken from PubChem BioAssay (NCI).

Test system: SK-MEL-5 melanoma
Test: NCI tumour cell line growth inhibition, 48 h; in the data active = GI50 below about 0.43 µM; inactive = the rest
Return exactly one item of y = active, n = inactive

{"record-smiles": "Cc1cc(C)c(-c2c(N)cc(Br)cc2Br)c(N)c1", "class-name": "n"}

Incoming: GET /call?item= `CCOc1ccn(-c2ccc(F)cc2)c(=O)c1C(=O)Nc1ccc(Oc2ccnc(N)c2Cl)c(F)c1` returns the recorded outcome of this test.
Outgoing: n

Incoming: Lookup `CCCCCCCCCC[C@H](O)[C@H](O)CC[C@@H](O)[C@H]1CC[C@@H]([C@H]2CC[C@H](CCCCCCC[C@@H](O)CC3=C[C@H](C)OC3=O)O2)O1`
Outgoing: y

Incoming: One more compound: `CC(C)COc1nc2c(c(=O)n(C)c(=O)n2C)n1C`
Outgoing: n

====

Test system: ACHN renal
Test: NCI tumour cell line growth inhibition, 48 h
Entry flag: 1 if TGI reaches 20 µM; 0 if it does not.

Please review the following examples before continuing.
{"molecule": "COc1ccc2c(c1)/C(=C\\c1c(Cl)[nH]c3ccccc13)C(=O)N2", "class-name": 1}
{"molecule": "CCN(CC)CSc1nc2ccccc2[nH]1", "class-name": 1}
{"molecule": "CC(=O)N1N=C(c2ccc(Nc3nc(Nc4ccc(F)cc4)nc(Nc4ccc(F)cc4)n3)cc2)CC1c1ccc(N(C)C)cc1 (configuration not stated)", "class-name": 0}
{"molecule": "COc1c(C(=O)NCCN(CCNC(=O)c2cccc(-c3cccc(C(=O)N(C)C)c3OC)c2OC)CCNC(=O)c2cccc(-c3cccc(C(=O)N(C)C)c3OC)c2OC)cccc1-c1cccc(C(=O)N(C)C)c1OC", "class-name": 1}
{"molecule": "O=C1C=CC(=O)c2c(O)c3c(c(O)c21)C[C@H](O)[C@H](O)[C@@H]3O", "class-name": 0}

Incoming: Determine whether this molecule has TGI no lower than 20 µM: OC(CN(CCCl)CCCl)C(O)C(O)C(O)CN(CCCl)CCCl (configuration not stated)
Outgoing: 0

Incoming: Same question, `CN(CCCNC(=O)c1cn(C)c2c1Cc1ccccc1-2)CCCNC(=O)c1cn(C)c2c1Cc1ccccc1-2` this time
Outgoing: 1

====

System: SK-MEL-2 melanoma
Test: NCI tumour cell line growth inhibition, 48 h
parameter: TGI (µM)
Numbers only, in µM.

{"compound": "CN(/N=C/c1ccnc2ccccc12)c1c([N+](=O)[O-])cc([N+](=O)[O-])cc1[N+](=O)[O-]", "units-of-measure": "µM", "TGI": 89.1}
{"compound": "Cc1cc(C)c(-c2c(N)cc(Br)cc2Br)c(N)c1", "units-of-measure": "µM", "TGI": 14.1}
{"compound": "O=C1c2ccccc2C2CCC1c1ccccc12 (stereo not given)", "units-of-measure": "µM", "TGI": 94}
{"compound": "CO[C@H]1CC(O[C@@H]2/C(C)=C/C[C@@H]3C[C@@H](C[C@]4(CC[C@H](C)[C@@H](C5CCCCC5)O4)O3)OC(=O)[C@@H]3C=C(C)/C(=N/O)[C@H]4OC/C(=C\\C=C\\[C@@H]2C)[C@]43O)O[C@@H](C)C1O (stereo not given in full)", "units-of-measure": "µM", "TGI": 2.68}

Okay, now this compound:
Incoming: Record request: TGI value, item `COc1cc(OC)cc(-c2cc(=O)c3cc4c(cc3[nH]2)OCO4)c1`
Outgoing: 4.46
